- study_system: glucose-6-phosphate dehydrogenase-6-phosphogluconolactonase (PfGluPho), Plasmodium falciparum 3D7
- experimental_details: inhibition of P. falciparum G6PD-lactonase – biochemical, fluorescence intensity, dose response, set 4, SAR follow-up (AID 602423)
- assay_context: recombinant PfGluPho, resazurin-diaphorase NADPH fluorescence
Active and inactive are the calls of the source.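 How the source made its calls: active means IC50 at or below 20 µM; inactive means the rest.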
Write down the outcome that applies. Available outcomes: Yes for active, No for inactive

Use these answered entries as a reference point.
CCCN1CCC[C@@H]1CNC(=O)c1ccc2c(c1)NC(=O)c1ccccc1S2 : Yes
CCN1CCC[C@@H]1CNC(=O)c1ccc2c(c1)NC(=O)c1cccc(C)c1S2 : Yes
CCN1CCC[C@@H]1CNC(=O)c1ccc2c(c1)NC(=O)c1ccccc1N2 : No
CCN1CCC[C@@H]1CNC(=O)c1ccc2c(c1)NC(=O)c1cc(C)ccc1S2 : No
CCN1CCC(NC(=O)c2ccc3c(c2)NC(=O)c2ccccc2S3)C1 (stereo not given) : No

What did this assay record as the result for CN1CCC(NC(=O)c2ccc3c(c2)NC(=O)c2ccccc2S3)C1 (stereo not given) ?
No

Outcome? CCCCCCN1CCCC1CNC(=O)c1ccc2c(c1)NC(=O)c1ccccc1S2 (stereo not given)
No

Field: outcome | Entry: O=C(NC[C@H]1CCCN1)c1ccc2c(c1)NC(=O)c1ccccc1S2
No

Could you kindly confirm the outcome this assay logged for CCCCN1CCCC1CNC(=O)c1ccc2c(c1)NC(=O)c1ccccc1S2 (stereo not given) ?
Yes

Query: recorded result category for CCCN1CCCCC1CNC(=O)c1ccc2c(c1)NC(=O)c1ccccc1S2 (stereo not given) in this test
No

----------
- study_system: glucose-6-phosphate dehydrogenase-6-phosphogluconolactonase (PfGluPho), Plasmodium falciparum 3D7
- experimental_details: inhibition of P. falciparum G6PD-lactonase – biochemical, fluorescence intensity, dose response, set 4, SAR follow-up (AID 602423)
- assay_context: recombinant PfGluPho, resazurin-diaphorase NADPH fluorescence
Active and inactive are the calls of the source.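 The calls were made as follows: active = IC50 at or below 20 µM; inactive = the rest.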
Reply using exactly one outcome from t for active, f for inactive

Here's what some known entries look like.
CCN1CCC[C@@H]1CNC(=O)c1ccc2c(c1)NC(=O)c1cc(F)ccc1S2 : f
CCN1CCCCC1CNC(=O)c1ccc2c(c1)NC(=O)c1ccccc1S2 (configuration not stated) : f
CCCN1CCC(NC(=O)c2ccc3c(c2)NC(=O)c2ccccc2S3)C1 (configuration not stated) : f
CN1CCCCC1CNC(=O)c1ccc2c(c1)NC(=O)c1ccccc1S2 (configuration not stated) : f
CN1CCCC1CNC(=O)c1ccc2c(c1)NC(=O)c1ccccc1S2 (configuration not stated) : f

Please indicate how the test categorized O=C(NCC1CCCCN1)c1ccc2c(c1)NC(=O)c1ccccc1S2 (configuration not stated) .
f

Assay result, entry CCN1CCC[C@@H]1CNC(=O)c1ccc2c(c1)NC(=O)c1ccc(F)cc1S2 — outcome?
t
